target_or_test_system: T1, recombinant human Tau monomer, 2N4R isoform (amino acids 2-441) (human, UniProt P10636-8 2-441)
T1 construct: range 2-441; N-terminal His-tag removed with TEV protease; also called monomeric Tau
T1 sequence (P10636 other isoform, or with tags, fused parts or gaps limits assumed): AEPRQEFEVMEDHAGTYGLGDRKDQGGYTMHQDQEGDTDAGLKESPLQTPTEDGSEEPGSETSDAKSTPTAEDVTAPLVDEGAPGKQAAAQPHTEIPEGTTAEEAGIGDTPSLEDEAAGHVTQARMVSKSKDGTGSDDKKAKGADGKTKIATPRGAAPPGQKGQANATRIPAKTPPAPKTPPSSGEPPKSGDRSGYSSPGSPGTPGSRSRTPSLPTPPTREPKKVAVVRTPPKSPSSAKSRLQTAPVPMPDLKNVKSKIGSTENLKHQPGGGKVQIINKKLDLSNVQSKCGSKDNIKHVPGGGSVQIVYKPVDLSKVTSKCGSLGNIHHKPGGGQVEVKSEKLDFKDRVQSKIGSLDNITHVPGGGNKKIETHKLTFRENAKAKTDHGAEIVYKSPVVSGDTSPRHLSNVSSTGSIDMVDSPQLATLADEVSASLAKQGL
assay_details: SPR, mIgG2a captured, Tau monomer analyte, 1:1 fit
Would you kindly list Kd for each of these binders?
Give your result in nM as a bare value.

## Input Query (binder): 11E10-B8 (antibody, mouse IgG2a, V domains shown) VH: EVQLVESGGDLVKPGGSLKLSCAASGFTFRSYGMSWVRQTPDKRLEWVATISGGGSYTYYPDSVKGRFTISRDNAKNTLYLQMSSLKSEDTAMYYCAVSYDGAMDYWGQGTSVTVSS VL: DVLMTQTPLSLPVSLGDQASISCRSSQSIVHSNGNTYLEWYLQKPGQSPKLLIYKVSNRFSGVPDRFSGSGSGTDFTLKISRVEAEDLGLYYCFQGSHVPWTFGGGTKLEIK ; field requested: Kd
## Output 108

## Input Also 89F4-A1 (antibody, mouse IgG2a, V domains shown) VH: EVQLVESGGGLVQPKGSLKLSCAASGFTFNTYAMNWVRQAPGKGLEWVARIRSKSNNYAAYFADSVKDRFTISRDDSQTMLYLQMNNLKSEDTAMYYCVSGGNYVPFAYWGQGTLVTVSA VL: NIMMTQSPSSLAVSAGEKVTMSCKSSQSVFYSSEQRNYLAWYQQKPGQSPKLLISWASTRESGVPDRFTGSGSGTDFTLTISSVQGEDLAVYYCHQYLSSFTFGSGTKLEIK , if possible.
## Output 27
